Could you please report measured Activity for the items listed next?
biological target: Nuclear receptor subfamily 0 group B member 2 (Homo sapiens); assay: Displacement of [5,5'-3H2]AHPN from recombinant human GST-SHP partner nuclear orphan receptor at 50 uM
Could you give me the number in %? Just the number is fine.

Problem: Requested read-out: Activity. Entry: `O=C1NC(=O)/C(=C/c2ccc(-c3ccc(O)c(C45CC6CC(CC(C6)C4)C5)c3)c(Cl)c2)S1`
Solution: 37

Problem: Query (molecule): `O=C(O)/C=C/c1ccc(-c2ccc(O)c(C34CC5CC(CC(C5)C3)C4)c2)c(Cl)c1` ; field requested: Activity
Solution: 87

Problem: Recorded Activity for `O=C(/C=C/c1ccc(-c2ccc(O)c(C34CC5CC(CC(C5)C3)C4)c2)c(Cl)c1)NO` , please?
Solution: 7

Problem: I would be grateful if you could share the reported Activity for `O=C(O)c1ccc2cc(-c3ccc(O)c(C45CC6CC(CC(C6)C4)C5)c3)ccc2c1` .
Solution: 53

Problem: Bench note: what Activity did `CC(=O)NCCCOc1cc(/C=C/C(=O)O)ccc1-c1ccc(O)c(C23CC4CC(CC(C4)C2)C3)c1` show?
Solution: 72

Problem: // Activity lookup, key: `O=C1NC(=O)/C(=C/C=C/c2ccc(-c3ccc(O)c(C45CC6CC(CC(C6)C4)C5)c3)c(Cl)c2)S1`
Solution: 69

Problem: I'd like to know its Activity. The molecule in question is `OB(O)/C=C/c1ccc(-c2ccc(O)c(C34CC5CC(CC(C5)C3)C4)c2)c(Cl)c1`
Solution: 0

====

tested on: KG-1; test: Inhibition of cell proliferation in retinoid-resistant KG1 cells at 1 uM after 48 hrs relative to control; assay type: functional; settings: Homo sapiens, KG-1, 48 h
Give measured inhibition at 1 µM for each item. Keep answers brief.
Numbers only; they are read as %.

Problem: Param item = `Oc1ccc(-c2ccc(-c3nnn[nH]3)cc2Cl)cc1C12CC3CC(CC(C3)C1)C2` ; retrieve measured inhibition at 1 µM.
Solution: 13

Problem: Could you tell me which inhibition at 1 µM is on file for `OB(O)/C=C/c1ccc(-c2ccc(O)c(C34CC5CC(CC(C5)C3)C4)c2)c(Cl)c1` ?
Solution: 0

Problem: Quick one: inhibition at 1 µM of `O=C1NC(=O)/C(=C/C=C/c2ccc(-c3ccc(O)c(C45CC6CC(CC(C6)C4)C5)c3)c(Cl)c2)S1` ?
Solution: 0

Problem: Given the entry `CCOP(=O)(O)/C=C/c1ccc(-c2ccc(O)c(C34CC5CC(CC(C5)C3)C4)c2)c(Cl)c1` , report its measured inhibition at 1 µM.
Solution: 0

Problem: Look at this compound and give its reported inhibition at 1 µM. `O=CC(=O)/C=C/c1ccc(-c2ccc(O)c(C34CC5CC(CC(C5)C3)C4)c2)c(Cl)c1`
Solution: 11

Problem: Which measured inhibition at 1 µM value corresponds to `O=C1NC(=O)/C(=C/c2ccc(-c3ccc(O)c(C45CC6CC(CC(C6)C4)C5)c3)c(Cl)c2)S1` ?
Solution: 28

Problem: Query (compound): `O=C(/C=C/c1ccc(-c2ccc(O)c(C34CC5CC(CC(C5)C3)C4)c2)c(Cl)c1)NO` ; field requested: inhibition at 1 µM
Solution: 0

Problem: Suppose we examine the compound `Oc1ccc(-c2ccc(/C=C/c3nnn[nH]3)cc2Cl)cc1C12CC3CC(CC(C3)C1)C2` ; what inhibition at 1 µM value has been reported?
Solution: 0

Problem: I'd like to know its inhibition at 1 µM. The compound in question is `N#CC(C#N)=Cc1ccc(-c2ccc(O)c(C34CC5CC(CC(C5)C3)C4)c2)c(Cl)c1`
Solution: 0

Problem: Quick check: inhibition at 1 µM of `O=C(O)/C=C/c1ccc(-c2ccc(O)c(C34CC5CC(CC(C5)C3)C4)c2)c(Cl)c1` ?
Solution: 44
